Quick list: IC50 (neutralization) per entry.
# TARGET DESC: HIV-1 Env of isolate MGRM-D-011 (subtype D) (HIV-1)
# TEST DETAILS: cell-based or functional assay
MEASURED ATTRIBUTE: IC50 (neutralization) (µg/mL)

BINDER	MEASURED ATTRIBUTE	READOUT UNIT	OBSERVED MEASUREMENT
PGT-126 (antibody, V domains shown) VH: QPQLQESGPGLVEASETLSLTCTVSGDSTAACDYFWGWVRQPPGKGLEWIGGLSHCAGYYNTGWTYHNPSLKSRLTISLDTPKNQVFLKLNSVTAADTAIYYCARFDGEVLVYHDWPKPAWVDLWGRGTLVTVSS VL: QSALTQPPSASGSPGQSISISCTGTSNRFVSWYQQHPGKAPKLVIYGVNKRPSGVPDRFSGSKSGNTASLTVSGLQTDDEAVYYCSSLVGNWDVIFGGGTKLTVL	IC50 (neutralization)	µg/mL	0.009
PGT-130 (antibody, V domains shown) VH: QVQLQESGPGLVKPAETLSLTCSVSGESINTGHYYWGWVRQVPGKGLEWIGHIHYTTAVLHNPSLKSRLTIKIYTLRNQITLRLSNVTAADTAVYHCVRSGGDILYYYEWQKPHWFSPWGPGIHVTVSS VL: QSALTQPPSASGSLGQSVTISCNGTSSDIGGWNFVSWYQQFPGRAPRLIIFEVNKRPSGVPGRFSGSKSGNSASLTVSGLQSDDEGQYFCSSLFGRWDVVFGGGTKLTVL	IC50 (neutralization)	µg/mL	0.019
PGT-123 (antibody, V domains shown) VH: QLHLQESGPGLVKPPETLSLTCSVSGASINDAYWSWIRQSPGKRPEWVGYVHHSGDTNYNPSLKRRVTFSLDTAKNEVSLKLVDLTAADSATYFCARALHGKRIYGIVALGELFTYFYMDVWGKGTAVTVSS VL: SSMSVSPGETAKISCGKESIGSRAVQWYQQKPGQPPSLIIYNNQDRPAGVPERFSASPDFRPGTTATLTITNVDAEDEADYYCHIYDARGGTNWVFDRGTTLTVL	IC50 (neutralization)	µg/mL	0.012
